Test system: human cervical tumor cell line HeLa (ATCC CCL-2)
experiment_description: SAC-Formation - Nocodazole-Induced Assay
Type: cell-based
details: Homo sapiens, HeLa, 24 h, HeLa cells, nocodazole 0.1 μg/ml together with test compound, decrease of mitotic cells (phospho-histone H3 Ser10)
readout_kind: log10 of IC50 (log10 of the value in µM)
All values: log10 IC50 [µM].

Give the value of log10 of IC50 reported for the following: Cc1nsc(Nc2ccc(C#N)cn2)c1C(=O)Nc1ccc(OCCC(=O)OC(C)(C)C)nc1
-0.02

Give the value of log10 of IC50 reported for the following: COC(=O)c1cc(NC(=O)c2c(C)nsc2Nc2cnc3ccccc3n2)cc(C(=O)OC)c1
-0.24

Give the value of log10 of IC50 reported for the following: Cc1nsc(Nc2nc3c(C(F)(F)F)cccc3s2)c1C(=O)Nc1ccc(OCCO)nc1
-0.25

Give the value of log10 of IC50 reported for the following: Cc1nsc(Nc2cnc3ccccc3n2)c1C(=O)Nc1ccc(C(=O)N2CCCN(CC(F)(F)F)CC2)cc1
0.18

Give the value of log10 of IC50 reported for the following: Cc1nsc(Nc2cnc(C(F)(F)F)cn2)c1C(=O)Nc1ccc(OC[C@@H]2CCN(CCC(F)(F)F)C2)nc1
-1.49

Give the value of log10 of IC50 reported for the following: CCCCN1CC[C@@H](Oc2ccc(NC(=O)c3c(C)nsc3Nc3cnc(C(F)(F)F)cn3)cn2)[C@@H](F)C1
-1.44

Others:
Give the value of log10 of IC50 reported for the following: Cc1nsc(Nc2cnc(C(F)(F)F)cn2)c1C(=O)Nc1ccc(F)c(O[C@@H]2CCN(CC(F)F)C2)c1
-1.89

Give the value of log10 of IC50 reported for the following: Cc1nsc(Nc2cnc(C(F)(F)F)cn2)c1C(=O)Nc1ccc(C(=O)NC2CCN(CC(F)(F)F)CC2)cc1
-0.62

Give the value of log10 of IC50 reported for the following: CC(=O)Nc1cc(NC(=O)c2c(C)nsc2Nc2cnccn2)ccc1F
0.78

Give the value of log10 of IC50 reported for the following: Cc1nsc(Nc2cnc(C(F)(F)F)cn2)c1C(=O)Nc1ccc(F)c(O[C@@H]2CCN(CC(F)(F)F)C2)c1
-1.77

====

Below, each entry is listed alongside its reported pIC50.
target_under_test: CDK2/CycE (Homo sapiens, UniProt P24941)
Construct: GST
experiment_description: CDK2/CycE kinase assay (TR-FRET)
details: avg, read-out: CDK2 avg (IC50 [mol/l])
pIC50: −log10 of the molar value.

For orientation, consider the following solved cases.
Give the value of pIC50 reported for the following: Cc1nsc(Nc2cnc3ccccc3n2)c1C(=O)Nc1cccc(C(=O)N2CCOCC2)c1 [Example 52]
≤ 4.70

Give the value of pIC50 reported for the following: Cc1nsc(Nc2cnc(C(F)(F)F)cn2)c1C(=O)Nc1ccc(O[C@@H]2CCCN(CC(F)(F)F)C2)nc1 [Example 386]
< 4.70

Give the value of pIC50 reported for the following: Cc1nsc(Nc2cnc(C(F)(F)F)cn2)c1C(=O)Nc1ccc(OC[C@H]2CCN(CC(F)(F)F)C2)nc1 [Example 404]
< 4.70

Others:
Give the value of pIC50 reported for the following: CCCN1CC[C@H](Oc2ccc(NC(=O)c3c(C)nsc3Nc3cnc(C(F)(F)F)cn3)cn2)[C@H](F)C1 [Example 147]
< 4.70

====

System: human cervical tumor cell line HeLa (ATCC CCL-2)
experiment_description: SAC-Formation - Nocodazole-Induced Assay
Format: cell-based
details: Homo sapiens, HeLa, 24 h, HeLa cells, nocodazole 0.1 μg/ml together with test compound, decrease of mitotic cells (phospho-histone H3 Ser10)
Below, each entry is listed alongside its reported log10 IC50.
All values: log10 IC50 [nM].

Specify the recorded log10 IC50 for Cc1nsc(Nc2cnc(C(F)(F)F)cn2)c1C(=O)Nc1ccc(CCC2CCN(CCC(F)(F)F)CC2)nc1 , system: human cervical tumor cell line HeLa (ATCC CCL-2).
2.08

Others:
Specify the recorded log10 IC50 for Cc1nsc(Nc2cnc(C(F)(F)F)cn2)c1C(=O)Nc1ccc(OC2CCN(C(CF)CF)C2)nc1 (stereo not drawn) , system: human cervical tumor cell line HeLa (ATCC CCL-2).
2.15

Specify the recorded log10 IC50 for Cc1nsc(Nc2cnc3ccccc3n2)c1C(=O)Nc1cccc(NS(=O)(=O)C2CN(CCF)C2)c1 , system: human cervical tumor cell line HeLa (ATCC CCL-2).
3.86

====

Tested on: human cervical tumor cell line HeLa (ATCC CCL-2)
experiment_description: SAC-Formation - Nocodazole-Induced Assay
Type: cell-based
details: Homo sapiens, HeLa, 24 h, HeLa cells, nocodazole 0.1 μg/ml together with test compound, decrease of mitotic cells (phospho-histone H3 Ser10)
Below, each entry is listed alongside its reported pIC50.
Just the number, please; pIC50 means minus log10 of the concentration in mol/L.

For orientation, consider the following solved cases.
Specify the recorded pIC50 for Cc1nsc(Nc2cnc3ccccc3n2)c1C(=O)Nc1cccc(C(=O)N2CCN(c3cccc(F)c3)CC2)c1 , system: human cervical tumor cell line HeLa (ATCC CCL-2).
6.41

Specify the recorded pIC50 for Cc1nsc(Nc2ccc(C#N)cn2)c1C(=O)Nc1cccc(C(=O)NC(C)C)c1 , system: human cervical tumor cell line HeLa (ATCC CCL-2).
5.43

Specify the recorded pIC50 for Cc1nsc(Nc2cc(C#N)ccn2)c1C(=O)Nc1ccc(OC2CCCN(C(=O)OC(C)(C)C)C2)nc1 (stereo not drawn) , system: human cervical tumor cell line HeLa (ATCC CCL-2).
6.55

Specify the recorded pIC50 for Cc1nsc(Nc2cncc(C(F)(F)F)n2)c1C(=O)Nc1ccc(OCCCNC(=O)OC(C)(C)C)nc1 , system: human cervical tumor cell line HeLa (ATCC CCL-2).
7.12

Specify the recorded pIC50 for Cc1nsc(Nc2cnc3cc(F)ccc3n2)c1C(=O)Nc1ccc(S(N)(=O)=O)cc1 , system: human cervical tumor cell line HeLa (ATCC CCL-2).
6.33

Specify the recorded pIC50 for Cc1nsc(Nc2cnc3ccccc3n2)c1C(=O)Nc1cccc(NS(=O)(=O)C2CCN(C(=O)OC(C)(C)C)C2)c1 (stereo not drawn) , system: human cervical tumor cell line HeLa (ATCC CCL-2).
5.70

Others:
Specify the recorded pIC50 for COC(=O)CCNC(=O)c1cccc(NC(=O)c2c(C)nsc2Nc2cnc3ccccc3n2)c1 , system: human cervical tumor cell line HeLa (ATCC CCL-2).
5.89

Specify the recorded pIC50 for Cc1nsc(Nc2cnc3ccccc3n2)c1C(=O)Nc1cccc(C(=O)NC2CC2)c1 , system: human cervical tumor cell line HeLa (ATCC CCL-2).
6.02

Specify the recorded pIC50 for Cc1nsc(Nc2cnc3ccccc3n2)c1C(=O)Nc1ccc(OC2CCCN(C(=O)OC(C)(C)C)C2)nc1 (stereo not drawn) , system: human cervical tumor cell line HeLa (ATCC CCL-2).
6.66

====

Tested on: HeLa
experiment_description: Proliferation assay (crystal violet), HeLa
Format: cell-based
details: Homo sapiens, HeLa, 96 h, HeLa cells; 4 days incubation; crystal violet staining; read-out: IC50 inhibition of proliferation, HeLa
readout_kind: log10 of IC50 (log10 of the value in µM)
All values: log10 IC50 [µM].

For orientation, consider the following solved cases.
Give the value of log10 of IC50 reported for the following: COc1cc(CNC(=O)c2cccc(NC(=O)c3c(C)nsc3Nc3cnc4ccccc4n3)c2)cc(OC)c1OC
0.60

Give the value of log10 of IC50 reported for the following: Cc1nsc(Nc2cnc(C(F)(F)F)cn2)c1C(=O)Nc1ccc(C2CCN(CC(F)(F)F)CC2)nc1
-0.49

Give the value of log10 of IC50 reported for the following: Cc1nsc(Nc2cnc(C(F)(F)F)cn2)c1C(=O)Nc1ccc(OCCN(C)CCF)nc1
0.00

Give the value of log10 of IC50 reported for the following: Cc1nsc(Nc2cnc3ccccc3n2)c1C(=O)Nc1cccc(C(=O)NCCCN2CCCC2)c1
1.00

Give the value of log10 of IC50 reported for the following: Cc1nsc(Nc2cncc(C(F)(F)F)n2)c1C(=O)Nc1ccc(OC2CCN(CCF)CC2)nc1
0.18

Give the value of log10 of IC50 reported for the following: Cc1nsc(Nc2cnc(C(F)(F)F)cn2)c1C(=O)Nc1ccc(OCCNC(=O)OC(C)(C)C)nc1
0.08

Others:
Give the value of log10 of IC50 reported for the following: Cc1nsc(Nc2cnc(C(F)(F)F)cn2)c1C(=O)Nc1ccc(OCC2CCN(C(=O)OC(C)(C)C)CC2)nc1
0.30

====

System: human cervical tumor cell line HeLa (ATCC CCL-2)
experiment_description: SAC-Formation - Nocodazole-Induced Assay
Format: cell-based
details: Homo sapiens, HeLa, 24 h, HeLa cells, nocodazole 0.1 μg/ml together with test compound, decrease of mitotic cells (phospho-histone H3 Ser10)
Below, each entry is listed alongside its reported IC50.
Give the number; nM is assumed, so skip it.

Give the value of IC50 reported for the following: Cc1nsc(Nc2cnc3ccccc3n2)c1C(=O)Nc1ccc(C(N)=O)c(F)c1 [Example 201]
520

Give the value of IC50 reported for the following: Cc1nsc(Nc2cnc(C(F)(F)F)cn2)c1C(=O)Nc1ccc(OC2CCN(C(=O)OC(C)(C)C)CC2)c(F)c1 [Example 217]
860
